Measured target: DNA gyrase (Escherichia coli) (UniProt P0AES6+P0AES4)
Assay: In vitro antibacterial activity against gram-negative organism […] ATCC 13048
Type: functional
Conditions: Enterobacter aerogenes
Reported endpoint: MIC (µg/mL)

{"Molecule": "Cc1c(N(C)CCN)c(F)cn2c(=O)c(C(=O)O)cc(C3CC3)c12", "Measurement units": "µg/mL", "Measured number": 1.56}

I = O=C(O)c1cc(-c2ccc(F)cc2F)c2nc(N3CCC(O)C3)c(F)cn2c1=O (centres undefined)
II = Cc1c(N2CCC(N(C)C)C2)c(F)cn2c(=O)c(C(=O)O)cc(C3CC3)c12 (centres undefined)
# argmax over MIC for candidates I and II Response format: the label of the selected entry.
I
(I: 0.39 µg/mL, II: 0.1 µg/mL)

a = Cc1c(N2CCC(c3ccccn3)C2)c(F)cn2c(=O)c(C(=O)O)cc(C3CC3)c12 (centres undefined)
b = Cc1c(N2C[C@@H]3CCCN[C@@H]3C2)c(F)cn2c(=O)c(C(=O)O)cc(C3CC3)c12 (stereo in doubt; 45n)
c = C[C@H]1C[C@H](N)CN1c1nc2c(-c3ccc(F)cc3F)cc(C(=O)O)c(=O)n2cc1F
d = Cc1c(-n2ccnc2)c(F)cn2c(=O)c(C(=O)O)cc(C3CC3)c12
Put the items in sequence by MIC, from largest down. Please respond with the labels ordered as the question requires.
a, d, c, b
